- Tested on: 349418-098-R-PDC complex spheroid viability;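 note: spheroids exposed to compound for seven days before viability readout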
- test details: Anticancer human tumor 349418-098-R-PDC patient-derived lung adenocarcinoma cell line growth inhibition [RAS]; active = viability on the fitted dose curve at most 10% of control; inactive = the rest
- recorded conditions: second compound 0.3 µM; first compound 0.00949 µM
- Description: RAS pathway inhibitors in Combinations in Complex Spheroids A high-throughput screen of multi-cell type tumor spheroids was designed to identify active combinations of RAS pathway inhibitors and targeted small molecules. Complex spheroids include a stromal component modeled by human endothelial cells (HUVEC) and fibroblasts modeled by human mesenchymal stem cells (MSCs). […] Compounds. […] If the clinical Cmax for an agent had not been determined, the highest concentration tested was 10 microM. […]
Field 'call' accepts 1 (active), -1 (inactive)

Q: Field: outcome | Entry: CC1(C)CCC(Nc2ncc(C(F)(F)F)c(-c3c[nH]c4c(P(C)(C)=O)c(C#N)ccc34)n2)CN1 (centres undefined) + CCn1c(-c2cc(N3CCN(C)CC3)cnc2C(C)OC)c2c3cc(ccc31)-c1csc(n1)CC(NC(=O)C1CC1C)C(=O)N1CCCC(N1)C(=O)OCC(C)(C)C2
A: -1

Q: Field: outcome | Entry: CCc1c2c(nc3ccc(O)cc13)-c1cc3c(c(=O)n1C2)COC(=O)[C@]3(O)CC + CCn1c(-c2cccnc2C(C)OC)c2c3cc(ccc31)N1CCOC(CC(NC(=O)C(C(C)C)N(C)C(=O)C3(F)CCN(C(=O)C#CC(C)(C)N(C)C)CC3)C(=O)N3CCCC(N3)C(=O)OCC(C)(C)C2)C1
A: 1

Q: Field: outcome | Entry: CCc1c2c(nc3ccc(O)cc13)-c1cc3c(c(=O)n1C2)COC(=O)[C@]3(O)CC + CCn1c(-c2cc(N3CCN(C)CC3)cnc2C(C)OC)c2c3cc(ccc31)-c1csc(n1)CC(NC(=O)C1CC1C)C(=O)N1CCCC(N1)C(=O)OCC(C)(C)C2
A: -1

Continuing:
Q: Field: outcome | Entry: CC1(C)CCC(Nc2ncc(C(F)(F)F)c(-c3c[nH]c4c(P(C)(C)=O)c(C#N)ccc34)n2)CN1 (centres undefined) + CCn1c(-c2cccnc2C(C)OC)c2c3cc(ccc31)N1CCOC(CC(NC(=O)C(C(C)C)N(C)C(=O)C3(F)CCN(C(=O)C#CC(C)(C)N(C)C)CC3)C(=O)N3CCCC(N3)C(=O)OCC(C)(C)C2)C1
A: -1

Ref: PubChem BioAssay AID2060904
